Test system: MDA-MB-231-cells
Experiment: Concentration dependent cytotoxicity test (IC50) on MDA-MB-231 cells
Assay type: cell-based
Conditions: MDA-MB-231, stopped after 72 hours; read-out: IC50
Reported IC50 values for a set of molecules
Kindly provide the numeric value in µM only, without the unit symbol.

INSERT INTO results (molecule, units, reported_result) VALUES
  ('[Fe+2].[O-]c1ccccc1C=Nc1ccccc1N=Cc1ccccc1[O-]', 'µM', 0.1),
  ('[Cl-].[Fe+3].[O-]c1ccccc1C=Nc1ccccc1N=Cc1ccccc1[O-] [Fe(III)salophen chloride]', 'µM', 0.01),
  ('N.N.[Cl][Pt][Cl] [cisplatin, reference compound]', 'µM', 4);

[ask] For the molecule C#CCOC(=O)c1ccccc1OC(C)=O.[C-]#[O+].[C-]#[O+].[C-]#[O+].[C-]#[O+].[C-]#[O+].[C-]#[O+].[Co].[Co] , report IC50.
[reply] 1.9
